From: ChEMBL document CHEMBL5579839

Measured pIC50 accompanies every entry in the list below.
Experiment: Cytotoxicity against human L02 cells
Assay type: toxicity, cell-based
// pIC50 here means minus log10 of the molar concentration (mol/L)

compound: CN1CCCN(c2ccc(Nc3ncc(Br)c(Nc4ccccc4NS(=O)(=O)C4CC4)n3)cc2)CC1
endpoint-result: 5.36

Query: Name the reported pIC50 value associated with the compound COc1cc(N2CCC(N3CCN(C)CC3)CC2)ccc1Nc1ncc(Cl)c(Nc2ccccc2P(C)(C)=O)n1 [BRIGATINIB]
Result: 5.85

---

Target: Epidermal growth factor receptor (Homo sapiens, UniProt P00533, C797S/EX19DEL/T790M)
Sequence (P00533 whole entry, looked up, stated change not applied): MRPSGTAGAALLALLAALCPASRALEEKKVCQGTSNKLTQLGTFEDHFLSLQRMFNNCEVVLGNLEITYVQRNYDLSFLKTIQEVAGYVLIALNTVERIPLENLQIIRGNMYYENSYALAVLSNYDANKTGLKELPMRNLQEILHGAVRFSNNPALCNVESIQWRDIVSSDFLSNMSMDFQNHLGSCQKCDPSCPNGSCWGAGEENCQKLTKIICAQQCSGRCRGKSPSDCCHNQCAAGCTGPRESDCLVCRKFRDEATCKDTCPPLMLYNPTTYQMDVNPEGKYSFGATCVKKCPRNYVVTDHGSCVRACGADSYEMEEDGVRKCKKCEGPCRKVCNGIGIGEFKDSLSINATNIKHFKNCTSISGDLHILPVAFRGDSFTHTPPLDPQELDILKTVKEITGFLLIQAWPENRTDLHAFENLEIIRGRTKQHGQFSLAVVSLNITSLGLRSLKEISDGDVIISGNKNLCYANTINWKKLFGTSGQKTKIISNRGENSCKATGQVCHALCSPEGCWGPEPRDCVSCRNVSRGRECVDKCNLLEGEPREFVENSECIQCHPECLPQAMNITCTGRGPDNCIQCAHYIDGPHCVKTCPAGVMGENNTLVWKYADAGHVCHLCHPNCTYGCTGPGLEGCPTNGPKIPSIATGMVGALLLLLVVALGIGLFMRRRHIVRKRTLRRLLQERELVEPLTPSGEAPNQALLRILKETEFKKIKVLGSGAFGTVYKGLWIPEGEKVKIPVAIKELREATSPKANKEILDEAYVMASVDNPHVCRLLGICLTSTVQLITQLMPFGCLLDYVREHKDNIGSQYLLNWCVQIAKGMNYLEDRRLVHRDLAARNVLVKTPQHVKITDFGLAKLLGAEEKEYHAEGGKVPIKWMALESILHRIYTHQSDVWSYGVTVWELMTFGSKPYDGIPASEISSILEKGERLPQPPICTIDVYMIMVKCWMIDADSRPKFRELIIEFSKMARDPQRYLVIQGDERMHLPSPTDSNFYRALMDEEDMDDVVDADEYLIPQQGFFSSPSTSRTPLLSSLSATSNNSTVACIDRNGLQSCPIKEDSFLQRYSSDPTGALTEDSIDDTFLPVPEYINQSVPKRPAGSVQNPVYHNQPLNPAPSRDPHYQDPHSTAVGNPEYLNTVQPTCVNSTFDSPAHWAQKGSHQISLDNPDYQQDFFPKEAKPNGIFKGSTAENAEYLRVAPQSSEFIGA
Assay: Inhibition of EGFR C797S/T790M/Del19 mutant (unknown origin)
Measured pIC50 accompanies every entry in the list below.
// pIC50 here means minus log10 of the molar concentration (mol/L)

// below: answered compounds
cpd-smiles: CN1CCCN(c2ccc(Nc3ncc(Br)c(Nc4ccccc4NS(=O)(=O)C4CC4)n3)cc2)CC1
pIC50: 9.38

cpd-smiles: Cc1cc(Nc2ncc(Cl)c(Nc3ccccc3NS(=O)(=O)C3CC3)n2)ccc1N1CCC(N(C)C)CC1
pIC50: 9.54

Query: Name the reported pIC50 value associated with the compound Cc1cc(Nc2ncc(Br)c(Nc3ccccc3NS(=O)(=O)C3CC3)n2)ccc1N1CCCN(C)CC1
Result: 9.52

---

Biological target: Epidermal growth factor receptor (Homo sapiens, UniProt P00533, C797S/L858R/T790M)
Sequence (P00533 25-1210 T790M/C797S/L858R limits assumed): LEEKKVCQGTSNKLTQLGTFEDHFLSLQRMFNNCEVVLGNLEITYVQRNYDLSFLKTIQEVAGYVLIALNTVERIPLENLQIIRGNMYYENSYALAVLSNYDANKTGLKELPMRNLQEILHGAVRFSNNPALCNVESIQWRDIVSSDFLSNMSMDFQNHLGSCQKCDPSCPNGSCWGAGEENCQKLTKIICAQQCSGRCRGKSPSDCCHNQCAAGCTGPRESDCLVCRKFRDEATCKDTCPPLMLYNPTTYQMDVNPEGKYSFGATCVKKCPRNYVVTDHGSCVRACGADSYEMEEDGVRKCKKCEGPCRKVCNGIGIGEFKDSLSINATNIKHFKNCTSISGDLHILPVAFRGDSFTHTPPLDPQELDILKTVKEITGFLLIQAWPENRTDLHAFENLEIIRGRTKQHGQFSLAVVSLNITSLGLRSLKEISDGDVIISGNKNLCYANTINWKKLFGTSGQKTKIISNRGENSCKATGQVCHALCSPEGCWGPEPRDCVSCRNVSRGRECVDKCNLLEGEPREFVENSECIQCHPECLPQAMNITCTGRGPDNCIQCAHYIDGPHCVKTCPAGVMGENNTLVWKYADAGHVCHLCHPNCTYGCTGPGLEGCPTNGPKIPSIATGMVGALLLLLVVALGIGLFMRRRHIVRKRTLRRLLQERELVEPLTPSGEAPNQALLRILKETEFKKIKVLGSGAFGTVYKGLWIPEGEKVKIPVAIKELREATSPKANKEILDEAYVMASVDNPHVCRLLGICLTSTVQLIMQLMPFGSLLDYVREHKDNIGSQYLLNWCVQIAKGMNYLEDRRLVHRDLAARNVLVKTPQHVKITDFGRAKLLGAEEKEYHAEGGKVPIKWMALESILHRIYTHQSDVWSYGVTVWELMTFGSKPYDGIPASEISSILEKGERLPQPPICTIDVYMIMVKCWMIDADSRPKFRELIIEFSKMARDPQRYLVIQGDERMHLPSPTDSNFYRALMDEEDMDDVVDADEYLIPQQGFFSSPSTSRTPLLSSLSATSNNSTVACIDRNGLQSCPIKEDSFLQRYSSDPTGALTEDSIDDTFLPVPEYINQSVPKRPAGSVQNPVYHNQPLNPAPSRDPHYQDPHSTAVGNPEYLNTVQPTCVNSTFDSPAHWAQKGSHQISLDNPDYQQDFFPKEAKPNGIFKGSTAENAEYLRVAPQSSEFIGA
Assay: Inhibition of EGFR C797S/T790M/L858R mutant (unknown origin)
observable: IC50 (nM)
A number alone suffices; assume nM.

// below: answered compounds
cpd-smiles: Cc1cc(Nc2ncc(Cl)c(Nc3ccccc3NS(=O)(=O)C3CC3)n2)ccc1N1CCC(N(C)C)CC1
unit-tag: nM
IC50: 0.37

cpd-smiles: Cc1cc(Nc2ncc(Br)c(Nc3ccccc3NS(=O)(=O)C3CC3)n2)ccc1N1CCCN(C)CC1
unit-tag: nM
IC50: 0.28

Consider now this further compound.
Query: Form field - read-out: IC50; system: Epidermal growth factor receptor (Homo sapiens, UniProt P00533, C797S/L858R/T790M); submitted item: CN1CCCN(c2ccc(Nc3ncc(Br)c(Nc4ccccc4NS(=O)(=O)C4CC4)n3)cc2)CC1
Result: 0.61

---

System: BaF3
Assay: Antiproliferative activity against mouse BaF3 cells harboring EGFR L858R/T790M/C797S mutant assessed as inhibition of sphere formation incubated for 72 hrs by CCK8 assay
Type: functional, cell-based
Conditions: BaF3, 72 h
observable: IC50 (µM)
A number alone suffices; assume µM.

Query: Name the reported IC50 value associated with the molecule CN1CCCN(c2ccc(Nc3ncc(Br)c(Nc4ccccc4NS(=O)(=O)C4CC4)n3)cc2)CC1
Result: 0.0112

---

Assay: Cytotoxicity against human HK-2 cells
Format: toxicity, cell-based
observable: IC50 (µM)
A number alone suffices; assume µM.

// below: answered compounds
cpd-smiles: CN1CCCN(c2ccc(Nc3ncc(Br)c(Nc4ccccc4NS(=O)(=O)C4CC4)n3)cc2)CC1
IC50 (µM): 2.79
//
cpd-smiles: C=CC(=O)Nc1cc(Nc2nccc(-c3cn(C)c4ccccc34)n2)c(OC)cc1N(C)CCN(C)C
IC50 (µM): 2.14

Consider now this further compound.
Query: Name the reported IC50 value associated with the compound COc1cc(N2CCC(N3CCN(C)CC3)CC2)ccc1Nc1ncc(Cl)c(Nc2ccccc2P(C)(C)=O)n1
Result: 2.13
